- Species on record: Rattus norvegicus
- testProtocol: DrugMatrix - Regimen: Daily Repeat
- Assay type: toxicity, organism-based, Sprague-Dawley
- Set-up: regimen Daily Repeat, gender Male, age 6-8 weeks
- testConditions: in vivo, po, 0 mg/kg, 120 h, tissue Blood, route oral GAVAGE, dose level Control, time 5 day, vehicle 100 % WATER
Sorting guide: entries reporting MONOCYTE beneath 2% go in the Satisfied pile, the rest go in the Not satisfied pile.

molecule: CC[C@H]1OC(=O)[C@H](C)[C@@H](O[C@H]2C[C@@](C)(OC)[C@@H](O)[C@H](C)O2)[C@H](C)[C@@H](O[C@@H]2O[C@H](C)C[C@H](N(C)C)[C@H]2O)[C@](C)(OC)C[C@@H](C)C(=O)[C@H](C)[C@@H](O)[C@]1(C)O [CLARITHROMYCIN]
group: Satisfied

molecule: CCOC(N)=O
group: Not satisfied

molecule: Cc1c(N(C)CS(=O)(=O)[O-])c(=O)n(-c2ccccc2)n1C.[Na+] [DIPYRONE SODIUM]
group: Satisfied

molecule: CCN(CC)CC#CCOC(=O)C(O)(c1ccccc1)C1CCCCC1 (stereo unspecified) [OXYBUTYNIN]
group: Satisfied

molecule: Nc1ccc(S(=O)(=O)Nc2nccs2)cc1 [SULFATHIAZOLE]
group: Satisfied

molecule: CC[C@H]1OC(=O)[C@H](C)[C@@H](O[C@H]2C[C@@](C)(OC)[C@@H](O)[C@H](C)O2)[C@H](C)[C@@H](O[C@@H]2O[C@H](C)C[C@H](N(C)C)[C@H]2O)[C@](C)(O)C[C@@H](C)CN(C)[C@H](C)[C@@H](O)[C@]1(C)O [AZITHROMYCIN]
group: Satisfied
